Would you mind telling me the reported pEC50 of each entry?
System: FLU A (PR/8/34)
Assay: Flu A Neuraminidase Antiviral Assay
Type: cell-based
When answering, recall that pEC50 equals minus log10 of the concentration in mol/L, and write that number alone.

Given the molecule O=C1c2c(O)c(=O)ccn2N2C(c3ccccc3)CCCC2N1CC1CC1 (single isomer, unassigned) [Compound 56D] , what is its reported pEC50?
7.42

Given the molecule Cc1cccc(C2(C)CCCC3N(CC(F)F)C(=O)c4c(O)c(=O)ccn4N32)n1 (single isomer, unassigned) [Compound 54B] , what is its reported pEC50?
7.60

Given the molecule CN1C(=O)c2c(O)c(=O)ccn2N2C(c3ccccc3)C(c3cccc(F)c3F)CCC12 (single isomer, unassigned) [Compound 116A] , what is its reported pEC50?
5.21

Given the molecule C=CCC1CCC2N(C)C(=O)c3c(O)c(=O)ccn3N2C1c1ccccc1Cl (stereo not shown) [Compound 64A] , what is its reported pEC50?
5.42

Given the molecule CN1C(=O)c2c(O)c(=O)ccn2N2C1CCC1(CCC(F)(F)CC1)C2c1ccccc1 (single isomer, unassigned) [Compound 72B] , what is its reported pEC50?
8.42

* * *

System: FLU A (PR/8/34)
Assay: Flu A Neuraminidase Antiviral Assay
Assay type: cell-based
Would you mind telling me the reported EC50 of each entry?

Given the molecule CN1C(=O)c2c(O)c(=O)ccn2N2C(c3ccccc3)C(CCC(F)(F)F)CCC12 (single isomer, unassigned) [Compound 128B] , what is its reported EC50?
0.0015 µM

Given the molecule CN1C(=O)c2c(O)c(=O)ccn2N2C1CCC(O)C2(C)c1ccccc1 (stereo not shown) [Compound 137B] , what is its reported EC50?
> 8.1 µM

Given the molecule CN1C(=O)c2c(O)c(=O)ccn2N2C(c3ccccc3)C(CCC3CC3)CCC12 (single isomer, unassigned) [Compound 115B] , what is its reported EC50?
> 8.1 µM

Given the molecule CC1CCC2N(C)C(=O)c3c(O)c(=O)ccn3N2C1(C)c1ccccc1 (single isomer, unassigned) [Compound 29A] , what is its reported EC50?
1.86 µM

Given the molecule CCN1C(=O)c2c(O)c(=O)ccn2N2C(c3ccccc3F)C(CCC(F)F)CCC12 (single isomer, unassigned) [Compound 101B] , what is its reported EC50?
0.0056 µM

Given the molecule Cc1ccccc1C1C(CC(F)(F)F)CC(C)C2N(C)C(=O)c3c(O)c(=O)ccn3N12 (single isomer, unassigned) [Compound 79A] , what is its reported EC50?
0.0838 µM

Given the molecule CN1C(=O)c2c(O)c(=O)ccn2N2C1CCC1(CC(F)(F)C1)C2c1ccccc1 (single isomer, unassigned) [Compound 74A] , what is its reported EC50?
> 0.81 µM

* * *

System: FLU A (PR/8/34)
Assay: Flu A Neuraminidase Antiviral Assay
Type: cell-based
measuredParameter: pEC50
When answering, recall that pEC50 equals minus log10 of the concentration in mol/L, and write that number alone.

Given the compound CN1C(=O)c2c(O)c(=O)ccn2N2C1CCC1(CC(F)(F)C1)C2c1ccccc1 (single isomer, unassigned) [Compound 74C] , what is its reported pEC50?
7.49

Given the compound Cc1ccccc1C1C(CCC(F)(F)F)CCC2N(C)C(=O)c3c(O)c(=O)ccn3N12 (single isomer, unassigned) [Compound 95B] , what is its reported pEC50?
8.12

Given the compound CN1C(=O)c2c(O)c(=O)ccn2N2C(c3ccccc3)C3CCC(C3)C12 (single isomer, unassigned) [Compound 9A] , what is its reported pEC50?
5.21
